# Tested On: hERG potassium channel (Homo sapiens)
# Sequence (Q12809 whole entry): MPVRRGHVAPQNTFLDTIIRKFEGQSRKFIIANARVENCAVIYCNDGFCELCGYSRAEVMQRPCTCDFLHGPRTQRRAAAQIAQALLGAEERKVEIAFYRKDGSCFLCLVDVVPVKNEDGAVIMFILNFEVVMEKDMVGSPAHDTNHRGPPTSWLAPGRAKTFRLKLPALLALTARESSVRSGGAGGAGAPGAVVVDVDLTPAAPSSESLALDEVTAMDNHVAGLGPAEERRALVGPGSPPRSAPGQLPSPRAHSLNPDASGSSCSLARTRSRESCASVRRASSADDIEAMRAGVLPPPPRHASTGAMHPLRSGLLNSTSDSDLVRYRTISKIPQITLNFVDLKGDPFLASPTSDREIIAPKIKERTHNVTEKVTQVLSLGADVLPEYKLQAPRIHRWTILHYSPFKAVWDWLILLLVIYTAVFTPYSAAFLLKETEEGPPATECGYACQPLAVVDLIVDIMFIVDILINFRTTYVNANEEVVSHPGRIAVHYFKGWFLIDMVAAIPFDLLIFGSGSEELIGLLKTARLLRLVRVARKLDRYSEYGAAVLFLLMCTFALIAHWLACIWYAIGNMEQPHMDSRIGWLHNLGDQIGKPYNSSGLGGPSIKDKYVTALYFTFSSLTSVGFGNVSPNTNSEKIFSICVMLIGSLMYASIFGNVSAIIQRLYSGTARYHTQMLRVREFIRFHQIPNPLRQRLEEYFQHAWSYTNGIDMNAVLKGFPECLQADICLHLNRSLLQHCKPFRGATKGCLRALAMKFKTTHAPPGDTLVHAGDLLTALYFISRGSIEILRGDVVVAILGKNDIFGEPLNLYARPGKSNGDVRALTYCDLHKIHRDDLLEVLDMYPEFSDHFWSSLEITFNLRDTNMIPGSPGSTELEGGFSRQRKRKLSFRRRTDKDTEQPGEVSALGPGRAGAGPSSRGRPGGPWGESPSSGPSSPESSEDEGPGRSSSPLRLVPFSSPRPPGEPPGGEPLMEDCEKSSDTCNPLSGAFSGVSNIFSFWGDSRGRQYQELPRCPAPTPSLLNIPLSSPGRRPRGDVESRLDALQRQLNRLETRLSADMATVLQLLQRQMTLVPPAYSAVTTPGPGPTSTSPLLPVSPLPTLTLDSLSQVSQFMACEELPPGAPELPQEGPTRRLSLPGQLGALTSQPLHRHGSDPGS
# Assay Protocol: in vitro
# Experimental Context: hERG / [3H]BTX-B selectivity, ratio of extrapolated hERG IC50 to [3H]BTX-B IC50 (synaptosomes)
Each record is given 1.0 if its reported selectivity ratio is strictly below 10. Records at or above 10 are given 0.0.

> print(dat)
                              smiles.string  assigned.label
1         CCCn1nc(-c2cccc(Cl)c2Cl)c(N)nc1=N             1.0
2  N=c1nc(N)c(-c2cccc(Cl)c2Cl)nn1CCC(F)(F)F             1.0
3    N=c1nc(N)c(-c2cccc(Cl)c2Cl)nn1Cc1ccsc1             1.0
4    N=c1nc(N)c(-c2cccc(Cl)c2Cl)nn1Cc1ccoc1             1.0
5     CCCn1nc(-c2cc(Cl)cc(Cl)c2Cl)c(N)nc1=N             0.0
6         Nc1nnc(-c2cc(Cl)cc(Cl)c2Cl)c(N)n1             1.0
7       Cn1nc(-c2cc(Cl)cc(Cl)c2Cl)c(N)nc1=N             0.0

---

Reported IC50 values are given for each entry in this list.
# Tested On: DiHydroFolate Reductase (DHFR) (Rattus norvegicus)
# Sequence (Q920D2 1-187): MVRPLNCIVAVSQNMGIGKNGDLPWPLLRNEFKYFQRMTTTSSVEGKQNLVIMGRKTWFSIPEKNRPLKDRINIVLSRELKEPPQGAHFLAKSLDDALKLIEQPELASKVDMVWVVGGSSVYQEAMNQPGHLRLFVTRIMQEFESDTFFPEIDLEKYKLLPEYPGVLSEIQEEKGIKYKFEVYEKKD
Reported Endpoint: IC50 (µM)

> print(dat)
                               smiles.string  reported.endpoint  unit.of.measurement  bound.operator  reported
 1         Nc1nnc(-c2cc(Cl)cc(Cl)c2Cl)c(N)n1               IC50                   µM               =        41
 2       Cn1nc(-c2cc(Cl)cc(Cl)c2Cl)c(N)nc1=N               IC50                   µM               >       250
 3             Nc1nnc(-c2ccc(Cl)cc2Cl)c(N)n1               IC50                   µM               =       105
 4          CCn1nc(-c2cc(Cl)ccc2Cl)c(N)nc1=N               IC50                   µM               =        95
 5  N=c1nc(N)c(-c2cccc(Cl)c2Cl)nn1CCC(F)(F)F               IC50                   µM               >       300
 6  CC(C)(C)OC(=O)N1CCC(Cn2nc(-c3cccc(Cl)c3Cl)c(N)nc2=N)CC1               IC50                   µM               >       300
 7            Cn1nc(-c2cccc(Cl)c2F)c(N)nc1=N               IC50                   µM               >       300
 8    N=c1nc(N)c(-c2cccc(Cl)c2Cl)nn1Cc1ccoc1               IC50                   µM               >       250
 9     CCCn1nc(-c2cc(Cl)cc(Cl)c2Cl)c(N)nc1=N               IC50                   µM               >       300
10                 Cn1nc(-c2ccccc2)c(N)nc1=N               IC50                   µM               =       288
